assay.details: Drug uptake in rat lung at 1 mg/kg, it at 7 hrs
Type: ADME, organism-based
setup.conditions: inhaled or intranasal, read-out: Drug uptake
quantity.kind: concentration at 7 h (µM)
Field: numeric (µM). Do not append units.

Query :: Need concentration at 7 h, item Cn1nccc1-c1ccn2c(C(=O)Nc3cc(C(=O)NCc4ccc(F)c(F)c4)ccc3F)cnc2c1
Result :: 276

----------
assay.details: Drug uptake in rat lung at 0.1 mg/kg, it at 24 hrs
Type: ADME, organism-based
setup.conditions: inhaled or intranasal, read-out: Drug uptake
quantity.kind: concentration at 24 h (nM)
Field: numeric (nM). Do not append units.

Query :: Need concentration at 24 h, item C[C@@H]1CCC[C@H](C)N1CCNC(=O)c1ccc(F)c(NC(=O)c2cnc3cc(-c4ccnn4C)ccn23)c1
Result :: 44

Query :: Need concentration at 24 h, item Cn1cc(-c2ccn3c(C(=O)Nc4cc(C(=O)NCCN5CCCC5(C)C)ccc4F)cnc3c2)cn1
Result :: 420

Query :: Need concentration at 24 h, item Cc1ncc(C(=O)NCCN2CCCC2(C)C)cc1NC(=O)c1cnn2cc(-c3cnn(C)c3)ccc12
Result :: 680
